This collection of values is drawn from PubChem BioAssay (NCI).

For each entry below, report its TGI value.
System: HOP-62 NSCLC
Experiment: NCI tumour cell line growth inhibition, 48 h
Answers are plain numbers, in µM.

| MOLECULE | TGI / µM |
| --- | --- |
| Oc1ccccc1C=Nc1nc(OCc2ccccc2)nc2[nH]ncc12 | 84.8 |
| CC1(C)CC[C@]2(C(=O)O)CC[C@]3(C)C(=CC[C@@H]4[C@@]5(C)C/C(=C/c6ccco6)C(=O)C(C)(C)[C@@H]5CC[C@]43C)[C@@H]2C1 | 14.9 |

Data request: Report value only: TGI, HOP-62 NSCLC, CC1(Cl)CC(C)(/C=C/Cl)C(Cl)CC1Cl (stereo not given)
Data returned: 34.7
